Consider the following molecules; for each one, report its IC50.
# test.system: UniProtKB P09467
# Sequence (P09467 whole entry): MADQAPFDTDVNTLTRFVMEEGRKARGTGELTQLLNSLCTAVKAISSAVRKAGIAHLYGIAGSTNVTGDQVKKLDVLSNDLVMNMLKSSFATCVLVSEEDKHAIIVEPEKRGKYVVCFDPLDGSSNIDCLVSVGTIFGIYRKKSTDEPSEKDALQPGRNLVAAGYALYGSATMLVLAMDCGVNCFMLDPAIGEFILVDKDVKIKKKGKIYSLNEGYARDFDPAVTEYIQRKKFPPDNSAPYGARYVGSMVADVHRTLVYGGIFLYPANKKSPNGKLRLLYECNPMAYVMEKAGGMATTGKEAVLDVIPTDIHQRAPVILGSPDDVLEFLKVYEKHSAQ
Answers are plain numbers, in nM.

                           substance_smiles  measured_attribute  reported_result
0  Nc1cccc2c1nc(-c1ccc(P(=O)(O)O)o1)n2Cc1ccc(C(F)(F)F)cc1                IC50             7000
1  Nc1cccc2c1nc(-c1ccc(P(=O)(O)O)o1)n2CC1CCCCCC1                IC50             3250
2  CC(C)Cn1c(-c2ccc(P(=O)(O)O)o2)nc2c(N)c(Br)ccc21                IC50              400
3   CCn1c(-c2ccc(P(=O)(O)O)o2)nc2c(N)cccc21                IC50             2250
4  C=Cc1cc(F)c(N)c2nc(-c3ccc(P(=O)(O)O)o3)n(CC(C)C)c12                IC50              280

I would be grateful if you could provide IC50 for each of the following entries.
1. Nc1cccc2c1nc(-c1ccc(P(=O)(O)O)o1)n2CC1CCC1
2. CC(C)Cn1c(-c2ccc(P(=O)(O)O)o2)nc2c(N)c(F)cc(-c3ccccc3)c21
3. CCCc1cc(F)c(N)c2nc(-c3ccc(P(=O)(O)O)o3)n(CC(C)C)c12
4. CC(C)Cn1c(-c2ccc(P(=O)(O)O)o2)nc2c(N)c(F)cc(Br)c21
5. CC(C)Cn1c(-c2ccc(P(=O)(O)O)o2)nc2c(N)ccc(Cl)c21

Response line:
1. 800
2. 90
3. 100
4. 130
5. 900

I would be grateful if you could provide IC50 for each of the following entries.
1. COc1ccc2c(nc(-c3ccc(P(=O)(O)O)o3)n2CC(C)C)c1N
2. CCCc1ccc2c(nc(-c3ccc(P(=O)(O)O)o3)n2CC(C)C)c1N
3. CC(C)Cn1c(-c2ccc(P(=O)(O)O)o2)nc2c(N)c(F)c(Cl)cc21
4. CC(C)Cn1c(-c2ccc(P(=O)(O)O)o2)nc2c(N)c(F)cc(Cl)c21
5. CC(C)Cn1c(-c2ccc(P(=O)(O)O)o2)nc2c(N)c(F)cc(-c3ccc(F)cc3)c21
6. CCC(CC)n1c(-c2ccc(P(=O)(O)O)o2)nc2c(N)c(F)ccc21
7. Nc1cccc2c1nc(-c1ccc(P(=O)(O)O)o1)n2Cc1ccccc1

Response line:
[700, 3000, 225, 100, 180, 850, 5000]

I would be grateful if you could provide IC50 for each of the following entries.
1. Nc1cccc2c1nc(-c1ccc(P(=O)(O)O)o1)n2Cc1ccsc1
2. CCc1ccc2c(nc(-c3ccc(P(=O)(O)O)o3)n2CC(C)C)c1N

Response line:
1: 4000; 2: 2500

====

# assay.text: Oral bioavailability in 18 hrs fasted normal Sprague-Dawley rat up to 100 mg/kg by urinary excretion assay
# Assay type: ADME, organism-based
# condition.description: urine
measured.attribute: bioavailability (%)
Give bare numbers, in %.

                           substance_smiles  measured_attribute  reported_result
0  CCc1cc(F)c(N)c2nc(-c3ccc(P(=O)(Oc4ccc(C(=O)OC(C)(C)C)cc4)Oc4ccc(C(=O)OC(C)(C)C)cc4)o3)n(CC(C)C)c12     bioavailability                2
1  CCOC(=O)[C@H](C)NP(=O)(N[C@@H](C)C(=O)OCC)c1ccc(-c2nc3c(N)c(F)cc(CC)c3n2CC(C)C)o1     bioavailability                5
2  CCc1cc(F)c(N)c2nc(-c3ccc(P(=O)(O)O)o3)n(CC(C)C)c12     bioavailability                1
3  CCc1cc(F)c(N)c2nc(-c3ccc(P(=O)(OCCSC(C)=O)OCCSC(C)=O)o3)n(CC(C)C)c12     bioavailability                2
4  CCc1cc(F)c(N)c2nc(-c3ccc(P(=O)(OCC(=O)OC(C)(C)C)OCC(=O)OC(C)(C)C)o3)n(CC(C)C)c12     bioavailability                2
5  CCOC(=O)OCOP(=O)(OCOC(=O)OCC)c1ccc(-c2nc3c(N)c(F)cc(CC)c3n2CC(C)C)o1     bioavailability                2

Prompt line: Indicate the recorded bioavailability value for this compound: CCc1cc(F)c(N)c2nc(-c3ccc(P(=O)(OCC(=O)OC(C)(C)C)OCC(=O)OC(C)(C)C)o3)n(CC(C)C)c12.Cl
Response line: 2

These measurements were taken from ChEMBL document CHEMBL1156817.
